Target: GR (Homo sapiens, UniProt P04150)
Sequence (P04150 1-777): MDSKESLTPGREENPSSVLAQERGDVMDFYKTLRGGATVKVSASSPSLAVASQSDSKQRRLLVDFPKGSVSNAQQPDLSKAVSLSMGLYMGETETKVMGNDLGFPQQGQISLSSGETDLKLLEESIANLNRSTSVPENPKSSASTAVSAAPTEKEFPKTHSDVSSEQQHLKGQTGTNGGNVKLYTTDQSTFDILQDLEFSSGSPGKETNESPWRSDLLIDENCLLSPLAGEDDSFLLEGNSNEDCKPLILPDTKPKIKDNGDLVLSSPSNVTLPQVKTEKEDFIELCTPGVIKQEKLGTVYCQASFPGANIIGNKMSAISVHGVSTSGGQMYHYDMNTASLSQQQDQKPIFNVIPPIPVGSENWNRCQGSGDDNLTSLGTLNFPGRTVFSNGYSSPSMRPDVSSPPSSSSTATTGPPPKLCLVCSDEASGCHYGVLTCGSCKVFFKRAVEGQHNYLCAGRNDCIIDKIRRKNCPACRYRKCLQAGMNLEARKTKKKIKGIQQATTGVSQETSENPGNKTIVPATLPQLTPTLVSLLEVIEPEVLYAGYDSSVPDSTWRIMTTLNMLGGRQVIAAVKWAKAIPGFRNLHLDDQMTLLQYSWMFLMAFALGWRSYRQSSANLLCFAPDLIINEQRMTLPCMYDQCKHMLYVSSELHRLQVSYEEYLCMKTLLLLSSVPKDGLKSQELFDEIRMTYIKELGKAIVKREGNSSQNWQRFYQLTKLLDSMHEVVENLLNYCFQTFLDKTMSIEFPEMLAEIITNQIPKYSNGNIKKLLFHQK
Test: In Vitro GR Luciferase Reporter Assay (antagonist assay)
Conditions: CHO-K1-GR-MMTV-Luc reporter cells, 10 nM Dexamethasone, 18-24 hours
pIC50: −log10 of the molar value.
A collection of compounds and their measured pIC50

compound	system	measured-metric	result
O=C(c1cc(C(F)(F)F)ccn1)[C@]12Cc3cnn(-c4ccc(F)nc4)c3C=C1CC[C@H](N(C1CC1)S(=O)(=O)c1ccc(F)cc1)C2	GR (Homo sapiens, UniProt P04150)	pIC50	≥ 7.00
C[C@H]([C@H]1CCC2=Cc3c(cnn3-c3ccc(F)cc3)C[C@]2(C(=O)c2ncc(C(F)(F)F)s2)C1)S(=O)(=O)c1ncn(C)n1	GR (Homo sapiens, UniProt P04150)	pIC50	≥ 7.00

pIC50 reading for `Cn1cnc(S(=O)(=O)N(C2CC2)[C@H]2CCC3=Cc4c(cnn4-c4ccc(F)cc4)C[C@]3(C(=O)c3ncc(C(C)(C)C)s3)C2)c1` : ≥ 7.00

---

biological target: GR (Homo sapiens, UniProt P04150); assay: In Vitro GR Luciferase Reporter Assay (antagonist assay); conditions: CHO-K1-GR-MMTV-Luc reporter cells, 10 nM Dexamethasone, 18-24 hours
pIC50: −log10 of the molar value.
measured-metric: pIC50

These solved cases illustrate the format of a correct answer.
substance-smiles	pIC50
Cn1cnc(S(=O)(=O)N(C2CC(F)(F)C2)[C@H]2CCC3=Cc4c(cnn4-c4ccc(F)nc4)C[C@]3(C(=O)c3cc(F)ccn3)C2)n1	≥ 7.00
Cn1cc(S(=O)(=O)N(C2CC(F)(F)C2)[C@H]2CCC3=Cc4c(cnn4-c4ccc(F)cc4)C[C@]3(C(=O)c3cc(Cl)ccn3)C2)cn1	≥ 7.00

Form field, pIC50 with GR (Homo sapiens, UniProt P04150), item `Cn1cnc(S(=O)(=O)N(CC(F)F)[C@H]2CCC3=Cc4c(cnn4-c4ccc(F)cc4)C[C@]3(C(=O)c3cc(F)ccn3)C2)n1` : ≥ 7.00

---

Molecular target: UniProtKB P04150
Sequence (P04150 1-777): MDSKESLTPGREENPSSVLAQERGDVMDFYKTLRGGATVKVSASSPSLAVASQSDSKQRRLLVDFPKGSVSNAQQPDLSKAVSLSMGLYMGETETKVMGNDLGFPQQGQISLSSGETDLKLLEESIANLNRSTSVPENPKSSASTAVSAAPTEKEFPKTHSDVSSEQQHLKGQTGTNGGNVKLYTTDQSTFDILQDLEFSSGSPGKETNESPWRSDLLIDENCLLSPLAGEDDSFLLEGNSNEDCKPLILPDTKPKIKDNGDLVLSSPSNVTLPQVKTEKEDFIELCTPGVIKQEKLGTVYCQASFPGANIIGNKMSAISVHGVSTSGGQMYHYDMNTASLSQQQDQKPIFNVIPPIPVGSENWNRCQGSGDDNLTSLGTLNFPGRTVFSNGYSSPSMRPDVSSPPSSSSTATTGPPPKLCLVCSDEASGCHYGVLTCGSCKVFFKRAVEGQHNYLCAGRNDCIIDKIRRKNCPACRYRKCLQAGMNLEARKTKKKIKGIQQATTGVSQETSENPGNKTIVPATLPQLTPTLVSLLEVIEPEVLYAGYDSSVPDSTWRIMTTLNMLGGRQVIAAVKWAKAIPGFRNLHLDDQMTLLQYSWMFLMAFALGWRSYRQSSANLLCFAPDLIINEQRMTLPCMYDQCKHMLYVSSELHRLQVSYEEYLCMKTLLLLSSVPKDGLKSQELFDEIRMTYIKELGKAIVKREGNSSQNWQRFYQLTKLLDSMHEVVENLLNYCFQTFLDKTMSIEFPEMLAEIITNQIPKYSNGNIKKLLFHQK
Experiment: In Vitro GR Luciferase Reporter Assay (antagonist assay)
Settings: CHO-K1-GR-MMTV-Luc reporter cells, 10 nM Dexamethasone, 18-24 hours
pIC50: −log10 of the molar value.
Parameter pIC50: see the listing below.

Guide cases for pIC50, answers given:
substance-smiles	pIC50
Cn1cc(S(=O)(=O)N(C2CC2)[C@H]2CCC3=Cc4c(cnn4-c4ccc(F)nc4)C[C@]3(C(=O)c3ncc(C(C)(C)C)s3)C2)cn1	≥ 7.00
Cn1cnc(S(=O)(=O)N([C@H]2CCC3=Cc4c(cnn4-c4ccc(F)cc4)C[C@]3(C(=O)c3cc(F)ccn3)C2)[C@H]2C[C@](O)(C(F)(F)F)C2)n1	6.00 to 7.00

// next entry
pIC50 reported for this compound `O=C(c1ccc(C2CC2)cn1)[C@]12Cc3cnn(-c4ccc(F)cc4)c3C=C1CC[C@H](S(=O)(=O)c1ncn(CC(F)(F)F)n1)C2` : ≥ 7.00

---

biological target: GR (Homo sapiens, UniProt P04150); experiment: In Vitro GR Luciferase Reporter Assay (antagonist assay); conditions: CHO-K1-GR-MMTV-Luc reporter cells, 10 nM Dexamethasone, 18-24 hours
pIC50: −log10 of the molar value.
measured-metric: pIC50

substance-smiles	system	pIC50
Cn1cc(-n2ncc3c2C=C2CC[C@H](N(C4CC4)S(=O)(=O)c4ccc(F)cc4)C[C@@]2(C(=O)c2cc(C(F)(F)F)ccn2)C3)ccc1=O	GR (Homo sapiens, UniProt P04150)	< 6.00
Cn1cc(S(=O)(=O)C[C@H]2CCC3=Cc4c(cnn4-c4ccc(F)cc4)C[C@]3(C(=O)c3cc(F)ccn3)C2)cn1	GR (Homo sapiens, UniProt P04150)	≥ 7.00
Cn1cc(S(=O)(=O)N(C2CC2)[C@H]2CCC3=Cc4c(cnn4-c4ccnc(F)c4)C[C@]3(C(=O)c3cc(C(F)(F)F)ccn3)C2)cn1	GR (Homo sapiens, UniProt P04150)	≥ 7.00

Value of measured pIC50 for the entry `Cn1cnc(S(=O)(=O)N(C2CC(F)(F)C2)[C@H]2CCC3=Cc4c(cnn4-c4ccc(F)nc4)C[C@]3(C(=O)c3cc(C(C)(C)C)ccn3)C2)n1` : ≥ 7.00

Summary for this compound, `Cn1cnc(S(=O)(=O)[C@H]2CCC3=Cc4c(cnn4-c4ccc(F)cc4)C[C@]3(C(=O)c3cc(C(F)F)ccn3)C2)n1` : pIC50 is ≥ 7.00

Consider `CC(C)N([C@H]1CCC2=Cc3c(cnn3-c3ccc(F)cc3)C[C@]2(C(=O)c2cc(F)ccn2)C1)S(=O)(=O)c1cn(C)cn1` . Its measured pIC50 is ≥ 7.00

---

target: GR (Homo sapiens, UniProt P04150); test: In Vitro GR Luciferase Reporter Assay (antagonist assay); conditions: CHO-K1-GR-MMTV-Luc reporter cells, 10 nM Dexamethasone, 18-24 hours
pIC50: −log10 of the molar value.
measured-metric: pIC50

Example cases with answers are listed next.
molecule	system	pIC50
O=C(c1cc(F)ccn1)[C@]12Cc3cnn(-c4ccc(F)cc4)c3C=C1CC[C@H](N(CC(F)F)S(=O)(=O)c1ccc(F)cc1)C2	GR (Homo sapiens, UniProt P04150)	≥ 7.00
C[C@H]([C@H]1CCC2=Cc3c(cnn3-c3ccc(F)cc3)C[C@]2(C(=O)c2ncc(C(F)(F)F)s2)C1)S(=O)(=O)c1cnn(C)c1 (single isomer, unassigned)	GR (Homo sapiens, UniProt P04150)	≥ 7.00

# ---- query molecule ----
The recorded pIC50 for `CC(C)N([C@H]1CCC2=Cc3c(cnn3-c3ccc(F)nc3)C[C@]2(C(=O)c2cc(F)ccn2)C1)S(=O)(=O)c1ncn(C)n1` is ≥ 7.00

Provenance of the data: patent US20220079924A1
